Attribution: paper PMC8553517

Test system: HepG2 cells
protocol: HepG2 toxicity assay
Format: cell-based
appliedConditions: Homo sapiens, HepG2, 72 h, read-out: IC50 against HepG2
readoutLabel: pIC50
pIC50 field: float, defined as -log10 of concentration (mol/L).

Prompt line: Can you share its pIC50? I mean this molecule: `N=C(Nc1ccc(OCCCCCCCCn2cccc2)cc1)c1ccccn1`
Response line: 4.89

Prompt line: Can you share its pIC50? I mean this molecule: CC(C)Oc1cc(NC(=N)c2ccccn2)ccc1OCCCCCCCCn1ccnc1 [Compound 17c]
Response line: 4.74

Prompt line: Can you share its pIC50? I mean this molecule: COc1cccc2c1C(=O)c1c(O)c3c(c(O)c1C2=O)C[C@@](O)(C(=O)CO)C[C@@H]3O[C@H]1C[C@H](N)[C@H](O)[C@H](C)O1 [Doxorubicin, reference compound]
Response line: 6.70

---

protocol: Microsomal stability, mouse liver microsomes
Assay type: in vitro ADME
appliedConditions: mouse, liver microsomes
I'd appreciate it if you could supply remaining at 1 h, 3 μM values for the items below.
The figure you give is taken to be in %; do not add the unit.

Prompt line: Can you share its remaining at 1 h, 3 μM? I mean this compound: CCOc1cc(OCCCCCCCCn2ccnc2)ccc1NC(=N)c1ccccn1 [Compound 24b]
Response line: 100

Prompt line: Can you share its remaining at 1 h, 3 μM? I mean this compound: CC(C)Oc1cc(NC(=N)c2ccccn2)ccc1OCCCCCCCCn1ccnc1 [Compound 17c]
Response line: 100

Prompt line: Can you share its remaining at 1 h, 3 μM? I mean this compound: COc1cc(NC(=N)c2ccccn2)ccc1OCCCCCCCCn1ccnc1 [Compound 17a]
Response line: 100

---

System: J774 macrophages
protocol: J774 macrophage toxicity assay
Assay type: cell-based, mouse
appliedConditions: Mus musculus, J774, read-out: IC50 against J774 macrophages
readoutLabel: pIC50
pIC50 field: float, defined as -log10 of concentration (mol/L).

Prompt line: Can you share its pIC50? I mean this compound: `N=C(Nc1ccc(OCCCCCCCCn2ccnc2)c(Cl)c1)c1ccccn1`
Response line: 5.17

Prompt line: Can you share its pIC50? I mean this compound: CCOc1cc(NC(=N)c2ccccn2)ccc1OCCCCCCCCn1ccnc1 [Compound 17b]
Response line: 5.05

Prompt line: Can you share its pIC50? I mean this compound: COc1cc(OCCCCCCCCn2ccnc2)ccc1NC(=N)c1ccccn1 [Compound 24a]
Response line: 5.03

Prompt line: Can you share its pIC50? I mean this compound: `N=C(Nc1ccc(OCCCCCCCCn2cncn2)cc1)c1ccccn1`
Response line: 4.44

Prompt line: Can you share its pIC50? I mean this compound: `N=C(Nc1ccc(OCCCCCCCCn2ccnc2)cc1Cl)c1ccccn1`
Response line: 5.07

Prompt line: Can you share its pIC50? I mean this compound: `N=C(Nc1ccc(OCCCCCCCCn2cccc2)cc1)c1ccccn1`
Response line: 4.96

Prompt line: Can you share its pIC50? I mean this compound: `N=C(Nc1ccc(OCCCCCCCCCCn2ccnc2)cc1)c1ccccn1`
Response line: 5.31

Prompt line: Can you share its pIC50? I mean this compound: COc1cc([C@@H]2c3cc4c(cc3[C@H](O)[C@H]3COC(=O)[C@H]23)OCO4)cc(OC)c1OC [Podophyllotoxin, reference compound]
Response line: 7.60

Prompt line: Can you share its pIC50? I mean this compound: CC(C)Oc1cc(NC(=N)c2ccccn2)ccc1OCCCCCCCCn1ccnc1 [Compound 17c]
Response line: 5.11

Prompt line: Can you share its pIC50? I mean this compound: `N=C(Nc1ccc(OCCCCCCCCn2ccnc2)cc1)c1ccccc1`
Response line: 6.32

Prompt line: Can you share its pIC50? I mean this compound: `N=C(Nc1ccc(OCCCCCCCCn2ccnc2)cc1)c1ccccn1`
Response line: 4.96

Prompt line: Can you share its pIC50? I mean this compound: COc1cc(NC(=N)c2ccccn2)ccc1OCCCCCCCCn1ccnc1 [Compound 17a]
Response line: 4.80

Prompt line: Can you share its pIC50? I mean this compound: CC(C)Oc1cc(OCCCCCCCCn2ccnc2)ccc1NC(=N)c1ccccn1 [Compound 24c]
Response line: 5.17

Prompt line: Can you share its pIC50? I mean this compound: CCOc1cc(OCCCCCCCCn2ccnc2)ccc1NC(=N)c1ccccn1 [Compound 24b]
Response line: 5.17

---

protocol: Microsomal stability, human liver microsomes
Assay type: in vitro ADME
appliedConditions: human, liver microsomes
I'd appreciate it if you could supply remaining at 1 h, 3 μM values for the items below.
The figure you give is taken to be in %; do not add the unit.

Prompt line: Can you share its remaining at 1 h, 3 μM? I mean this compound: COc1cc(NC(=N)c2ccccn2)ccc1OCCCCCCCCn1ccnc1 [Compound 17a]
Response line: 100

Prompt line: Can you share its remaining at 1 h, 3 μM? I mean this compound: `N=C(Nc1ccc(OCCCCCCCCn2ccnc2)cc1)c1ccccn1`
Response line: 100

---

I'd appreciate it if you could supply IC50 values for the items below.
measuredOn: recombinant L. donovani CYP51 (Leishmania donovani)
protocol: Fluorescence-based L. donovani CYP51 inhibition assay
Phrase the answer as number then unit, nothing more needed.

Prompt line: Can you share its IC50? I mean this compound: CC[C@@H]([C@H](C)O)n1ncn(-c2ccc(N3CCN(c4ccc(OC[C@@H]5CO[C@@](Cn6cncn6)(c6ccc(F)cc6F)C5)cc4)CC3)cc2)c1=O [Posaconazole, posaconazole, reference compound]
Response line: 59 nM

Prompt line: Can you share its IC50? I mean this compound: `N=C(Nc1ccc(OCCCn2ccnc2)cc1)c1ccccn1`
Response line: 22000 nM

Prompt line: Can you share its IC50? I mean this compound: `N=C(Nc1ccc(OCCCCn2ccnc2)cc1)c1ccccn1`
Response line: 6400 nM

Prompt line: Can you share its IC50? I mean this compound: `N=C(Nc1ccc(OCCCCCn2ccnc2)cc1)c1ccccn1`
Response line: 4800 nM

Prompt line: Can you share its IC50? I mean this compound: `N=C(Nc1ccc(OCCCCCCCCn2ccnc2)c(Cl)c1)c1ccccn1`
Response line: 180 nM

Prompt line: Can you share its IC50? I mean this compound: CC(C)Oc1cc(OCCCCCCCCn2ccnc2)ccc1NC(=N)c1ccccn1 [Compound 24c]
Response line: 330 nM

Prompt line: Can you share its IC50? I mean this compound: OC(Cn1cncn1)(Cn1cncn1)c1ccc(F)cc1F [Fluconazole, fluconazole, reference compound]
Response line: 960 nM

Prompt line: Can you share its IC50? I mean this compound: `N=C(Nc1ccc(OCCCCCCCCn2cncn2)cc1)c1ccccn1`
Response line: 1900 nM

---

I'd appreciate it if you could supply pIC50 values for the items below.
measuredOn: recombinant L. donovani CYP51 (Leishmania donovani)
protocol: Fluorescence-based L. donovani CYP51 inhibition assay
pIC50 field: float, defined as -log10 of concentration (mol/L).

Prompt line: Can you share its pIC50? I mean this molecule: `N=C(Nc1ccc(OCCCCCCCCn2cccc2)cc1)c1ccccn1`
Response line: 4.85

Prompt line: Can you share its pIC50? I mean this molecule: `N=C(Nc1ccc(OCCCCn2cncn2)cc1)c1ccccn1`
Response line: 4.05

Prompt line: Can you share its pIC50? I mean this molecule: CC(=O)N1CCN(c2ccc(OCC3COC(Cn4ccnc4)(c4ccc(Cl)cc4Cl)O3)cc2)CC1 (stereo not shown) [Ketoconazole, ketoconazole, reference compound]
Response line: 7.32

Prompt line: Can you share its pIC50? I mean this molecule: `N=C(Nc1ccc(OCCCCCCCCn2ccnc2)cc1)c1ccccc1`
Response line: 6.47

---

I'd appreciate it if you could supply pIC50 values for the items below.
System: HepG2 cells
protocol: HepG2 toxicity assay
Assay type: cell-based
appliedConditions: Homo sapiens, HepG2, 72 h, read-out: IC50 against HepG2
pIC50 field: float, defined as -log10 of concentration (mol/L).

Prompt line: Can you share its pIC50? I mean this compound: `N=C(Nc1ccc(OCCCCCCn2ccnc2)cc1)c1ccccn1`
Response line: 4.70

Prompt line: Can you share its pIC50? I mean this compound: `N=C(Nc1ccc(OCCCCCCCCCCn2ccnc2)cc1)c1ccccn1`
Response line: 5.16

Prompt line: Can you share its pIC50? I mean this compound: CC(C)Oc1cc(OCCCCCCCCn2ccnc2)ccc1NC(=N)c1ccccn1 [Compound 24c]
Response line: 4.92

Prompt line: Can you share its pIC50? I mean this compound: `N=C(Nc1ccc(OCCCCCCCCn2ccnc2)c(Cl)c1)c1ccccn1`
Response line: 5.11

Prompt line: Can you share its pIC50? I mean this compound: `N=C(Nc1ccc(OCCCCCn2ccnc2)cc1)c1ccccn1`
Response line: 4.38

Prompt line: Can you share its pIC50? I mean this compound: `N=C(Nc1ccc(OCCCCCCCCn2ccnc2)cc1Cl)c1ccccn1`
Response line: 5.07

Prompt line: Can you share its pIC50? I mean this compound: COc1cc(NC(=N)c2ccccn2)ccc1OCCCCCCCCn1ccnc1 [Compound 17a]
Response line: 4.64

Prompt line: Can you share its pIC50? I mean this compound: CCN(CC)CCCC(C)Nc1c2ccc(Cl)cc2nc2ccc(OC)cc12 (stereo not shown) [Quinacrine, reference compound]
Response line: 5.26

Prompt line: Can you share its pIC50? I mean this compound: `N=C(Nc1ccc(OCCCCCCCCn2ccnc2)cc1)c1ccccc1`
Response line: 5.31

Prompt line: Can you share its pIC50? I mean this compound: CCOc1cc(OCCCCCCCCn2ccnc2)ccc1NC(=N)c1ccccn1 [Compound 24b]
Response line: 4.92

Prompt line: Can you share its pIC50? I mean this compound: `N=C(Nc1ccc(OCCCCCCCCn2ccnc2)cc1)c1ccccn1`
Response line: 4.92

Prompt line: Can you share its pIC50? I mean this compound: CCOc1cc(NC(=N)c2ccccn2)ccc1OCCCCCCCCn1ccnc1 [Compound 17b]
Response line: 4.89

Prompt line: Can you share its pIC50? I mean this compound: COc1cc(OCCCCCCCCn2ccnc2)ccc1NC(=N)c1ccccn1 [Compound 24a]
Response line: 4.80

Prompt line: Can you share its pIC50? I mean this compound: `N=C(Nc1ccc(OCCCCCCCCn2cncn2)cc1)c1ccccn1`
Response line: 4.49
